Data provenance is PubChem BioAssay (NCATS).

- method notes: Quantitative highthroughput screen to assess conditional lethalithy of SEM cells grown in RPMI1640 with unreated serum (RPMI+s) (AID 1963883); note: nearly all actives have a fitted effect of over 35% in size;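 for viability: 100% = DMSO wells and 0% = empty wells without cells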
- run parameters: SEM B-ALL cells, CellTiter-Glo viability, 48 h; series mostly up to 45.8 µM
Records with an inconclusive call do not appear. The source made the active and inactive calls. Calls come from the whole dose curve; as a rule, active = well fitted cell-killing curve with a large enough effect; inconclusive = small, poorly fitted or top-dose-only effect, or effect the other way; inactive = no such curve, though single readings can be large or run the other way.
Hi! Could you answer with just one of these? t for active, f for inactive

Check out these entries, answers already filled in.
>>> print(df.to_string())
                                   compound  label_class
0   Cn1cc(C=CC(=O)c2cccc(F)c2)cc1C=CC(=O)NO            f
1  C[C@@H](Oc1ccc2[nH]nc(C=Cc3cnn(CCO)c3)c2c1)c1c(Cl)cncc1Cl            t
2  c1cncc(CN2CCC(n3ncc4c(N5CCOCC5)nc(-c5ccc6[nH]ccc6c5)nc43)CC2)c1            t

Task: Returns: the outcome recorded for CCOC(=O)N1CCN([N+]([O-])=NOc2ccc([N+](=O)[O-])cc2[N+](=O)[O-])CC1 in this assay.
Result: t

====

- method notes: Quantitative highthroughput screen to assess conditional lethalithy of SEM cells grown in RPMI1640 with unreated serum (RPMI+s) (AID 1963883); note: nearly all actives have a fitted effect of over 35% in size;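 for viability: 100% = DMSO wells and 0% = empty wells without cells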
- run parameters: SEM B-ALL cells, CellTiter-Glo viability, 48 h; series mostly up to 45.8 µM
Results filed as inconclusive are left out. Active and inactive are the calls of the source. The call rests on the fitted dose curve; in most records, active means well fitted cell-killing curve with a large enough effect; inconclusive means small, poorly fitted or top-dose-only effect, or effect the other way; inactive means no such curve, though single readings can be large or run the other way.
Hi! Could you answer with just one of these? true (1) (active), false (0) (inactive)

smiles input	label class
O=c1[nH]cnc2[nH]ncc12	false (0)
COc1ccc(C2=N[C@H](c3ccc(Cl)cc3)[C@H](c3ccc(Cl)cc3)N2C(=O)N2CCNC(=O)C2)c(OC(C)C)c1	true (1)
CN(C)C1CCN(C(=O)c2ccc(NC(=O)Nc3nc(N4CCOCC4)nc(N4CCOCC4)n3)cc2)CC1	true (1)
CNC(=O)c1ccccc1Sc1ccc2c(C=Cc3ccccn3)n[nH]c2c1	true (1)
CN1CCC(=C2c3ccccc3CCc3sccc32)CC1	false (0)

Next, consider the following compound.
Task: Returns: the outcome recorded for CN(C)S(=O)(=O)c1ccc2c(c1)C(=Cc1cc3c([nH]1)CCCC3)C(=O)N2 in this assay.
Result: false (0)

====

- method notes: Quantitative highthroughput screen to assess conditional lethalithy of P12 Ichikawa cells grown in Human Plasma-Like Medium with dialyzed fetal bovine serum (HPLM+ds) (AID 1963879); note: nearly all actives have a fitted effect of over 35% in size
- run parameters: ATP luminescence, 48 h; viability; series mostly up to 45.8 µM
Records with an inconclusive call do not appear. Calls of active or inactive are those of the source. The call rests on the fitted dose curve; in most records, active means well fitted cell-killing curve with a large enough effect; inconclusive means small, poorly fitted or top-dose-only effect; inactive means flat fitted curve, though single readings scatter.
Hi! Could you answer with just one of these? y (active), n (inactive)

>>> df
                                   compound  label_class
0  O=C(Nc1cccnn1)N1CCC(=Cc2cccc(Oc3ccc(C(F)(F)F)cn3)c2)CC1            n
1  Cc1cc(C(=O)N2CCN(c3cccc(Cl)c3)CC2)n(-c2ccccc2)n1            y

Task: Returns: the outcome recorded for N[C@@H](Cc1ccc(O)c(O)c1)C(=O)O in this assay.
Result: n

Task: Returns: the outcome recorded for CNC[C@H](O)c1ccc(O)c(O)c1 in this assay.
Result: n

Task: Returns: the outcome recorded for CC1(C)NC(=O)N(c2ccc([N+](=O)[O-])c(C(F)(F)F)c2)C1=O in this assay.
Result: n

Task: Returns: the outcome recorded for COc1cc(C(C)=O)ccc1OCCCN1CCC(c2noc3cc(F)ccc23)CC1 in this assay.
Result: n

Task: Returns: the outcome recorded for Cc1ccccc1C(=O)Nc1ccc(C(=O)N2CCCC(O)c3cc(Cl)ccc32)c(C)c1 (centres undefined) in this assay.
Result: n

Task: Returns: the outcome recorded for COc1cc(N2CCC(C(N)=O)CC2)ccc1Nc1nc(N)c(Cl)c(Nc2ccccc2S(=O)(=O)C(C)C)n1 in this assay.
Result: y

====

- method notes: Quantitative highthroughput screen to assess conditional lethalithy of SEM cells grown in Human Plasma-Like Medium with dialyzed fetal bovine serum (HPLM+ds) (AID 1963882); note: nearly all actives have a fitted effect of over 35% in size
- run parameters: SEM B-ALL cells in HPLM+ds, CellTiter-Glo viability, 48 h; series mostly up to 45.8 µM
Inconclusive results are not listed. Activity calls are given as the source filed them. Calls come from the whole dose curve; as a rule, active = well fitted cell-killing curve with a large enough effect; inconclusive = small, poorly fitted or top-dose-only effect, or effect the other way; inactive = no such curve, though single readings can be large or run the other way.
Hi! Could you answer with just one of these? true (1) = active, false (0) = inactive

compound	label class
CN(C)c1nc(N(C)C)nc(N(C)C)n1	false (0)
CC[C@]1(O)C[C@H]2CN(CCC3=c4ccccc4=N[C]3[C@@](C(=O)OC)(c3cc4c(cc3OC)N(C)[C@H]3[C@@](O)(C(N)=O)[C@H](O)[C@]5(CC)C=CCN6CC[C@]43[C@@H]65)C2)C1	true (1)
C[C@@H]1CC(=O)NN=C1c1ccc(NN=C(C#N)C#N)cc1	true (1)
Cc1cccc(Nc2ccncc2S(=O)(=O)NC(=O)NC(C)C)c1	false (0)
O=C1CCc2cc(OCCCCc3nnnn3C3CCCCC3)ccc2N1	false (0)
CN1c2ccccc2C(=O)N2CCc3c([nH]c4ccccc34)C21 (stereo unspecified)	false (0)

Task: Returns: the outcome recorded for CCn1cc(C(=O)O)c(=O)c2cc(F)c(N3CCNCC3)nc21 in this assay.
Result: false (0)

Task: Returns: the outcome recorded for Cc1[nH]c(C=C2C(=O)Nc3ccc(S(=O)(=O)Cc4c(Cl)cccc4Cl)cc32)c(C)c1C(=O)N1CCC[C@H]1CN1CCCC1 in this assay.
Result: true (1)

Task: Returns: the outcome recorded for CN(CCOc1ccc(NS(C)(=O)=O)cc1)CCc1ccc(NS(C)(=O)=O)cc1 in this assay.
Result: false (0)

====

- method notes: Viability qHTS for spleen associated tyrosine kinase inhibitor (SYKi) naive MV4-11 cells (AID 1963823); note: nearly all actives have a fitted effect of over 40% in size
- run parameters: MV4-11 AML viability, CellTiter-Glo luminescence, 72 h; series mostly up to 45 µM
Records with an inconclusive call do not appear. Active and inactive are the calls of the source. Calls come from the whole dose curve; as a rule, active = well fitted cell-killing curve with a large enough effect; inconclusive = small, poorly fitted or top-dose-only effect, or effect the other way; inactive = no such curve, though single readings can be large or run the other way.
Hi! Could you answer with just one of these? active, inactive

Check out these entries, answers already filled in.
In [3]: df
Out[3]:
                                   compound  label_class
0  Cc1ccc2c(n1)Oc1ccc(C(C)C(=O)OCC(=O)N(C)C)cc1C2 (stereo not drawn)       active
1     O=C1NC(=O)/C(=C/c2cccc(C(F)(F)F)c2)S1     inactive

Next, consider the following compound.
Task: Returns: the outcome recorded for C=CCCCCCCCCC(=O)O in this assay.
Result: inactive

====

- method notes: Quantitative highthroughput screen to assess conditional lethalithy of P12 Ichikawa cells grown in RPMI1640 with untreated serum (RPMI+s) (AID 1963881); note: nearly all actives have a fitted effect of over 35% in size; note: potency is the fitted concentration of half-maximal effect;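 for viability: 100% = DMSO wells and 0% = empty wells without cells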
- run parameters: ATP luminescence, 48 h; viability; series mostly up to 45.8 µM
- Protocol: Assay Provider: Jason Cantor Ph.D. Department of Biochemistry University of Wisconsin-Madison, Madison, WI, USA Chemical screening studies have identified drug sensitivities across hundreds of cancer cell lines but most putative therapeutics fail to translate. […] Sets of conditional anticancer compounds spanned phases of clinical development and included non-oncology drugs were assessed. […] 6; Detection; Luminescence, Viewlux PerkinElmer. […]
Inconclusive results are not listed. The source made the active and inactive calls. Calls come from the whole dose curve; as a rule, active = well fitted cell-killing curve with a large enough effect; inconclusive = small, poorly fitted or top-dose-only effect; inactive = flat fitted curve, though single readings scatter.
quantity: Potency

Check out these entries, answers already filled in.
In [3]: df
Out[3]:
                                   molecule  quantity            reported
0  Cc1c(C)c2c(c(C)c1O)CCC(C)(COc1ccc(CC3SC(=O)NC3=O)cc1)O2 (stereo unspecified)   Potency            inactive
1  O=C(O)c1cn(-c2ccc(F)cc2)c2cc(N3CCNCC3)c(F)cc2c1=O   Potency            inactive
2  CN(C)CCCC1(c2ccc(F)cc2)OCc2cc(C#N)ccc21 (stereo unspecified)   Potency            inactive
3  NCc1ccc(OCCCc2sc(-c3ccc4c(c3)/C(=N/Nc3nc5ccccc5s3)CCC4)nc2C(=O)O)cc1   Potency  0.0331 µM (active)
4  O=C(NCCCNc1nc(Nc2cccc(NC(=O)N3CCCC3)c2)ncc1I)c1cccs1   Potency            inactive
5  NC1CCC(N[C@@H]2C[C@H]2c2ccccc2)CC1 (stereo partly specified)   Potency            inactive
6  C[C@@H]1CCN(C(=O)CC#N)C[C@H]1N(C)c1ncnc2[nH]ccc12   Potency            inactive
7       COc1cc(OC)c(C(=O)CCCN2CCCC2)c(OC)c1   Potency            inactive
8  CCc1cc(C(C)=NOCc2ccc(C3CCCCC3)c(C(F)(F)F)c2)ccc1CN1CC(C(=O)O)C1   Potency    9.35 µM (active)
9  C[C@H]1c2cccc(O)c2C(O)=C2C(=O)[C@]3(O)C(O)=C(C(N)=O)C(=O)[C@@H](N(C)C)[C@@H]3[C@@H](O)[C@@H]21   Potency    18.7 µM (active)

With those in mind, consider the next molecule.
Data point: CC=C(C(=CC)c1ccc(O)cc1)c1ccc(O)cc1 ; Potency = inactive
